- testedOn: Prothrombin (Homo sapiens, UniProt P00734)
- assayExplanation: Binding affinity for Coagulation factor II relative to compound 1
measureName: Selectivity
The reply should be a number, written without any unit.

Note down Selectivity recorded for N=C(N)c1cccc(-c2cc(CC(=O)O)cc(-c3cc4cc(C(=N)N)ccc4[nH]3)c2O)c1 140

Note down Selectivity recorded for N=C(N)c1ccc2[nH]c(-c3cc(CC(=O)O)cc(-c4cccc(C(=O)O)c4)c3O)cc2c1 375

Note down Selectivity recorded for N=C(N)c1ccc2[nH]c(-c3cc(CC(=O)O)cc(-c4cccc(OP(=O)(O)O)c4)c3O)cc2c1 87

Note down Selectivity recorded for N=C(N)c1ccc2[nH]c(-c3cc(CC(=O)O)cc(-c4cccc(N)c4)c3O)cc2c1 550

Note down Selectivity recorded for N=C(N)c1ccc2[nH]c(-c3cc(C(=O)O)cc(-c4cccc([N+](=O)[O-])c4)c3O)cc2c1 420

Note down Selectivity recorded for N=C(N)c1ccc2[nH]c(-c3cc(CC(=O)O)cc(-c4cccc(-c5nn[nH]n5)c4)c3O)cc2c1 100

Note down Selectivity recorded for N=C(N)c1ccc2[nH]c(-c3cc(CCOP(=O)(O)O)cc(-c4cccc([N+](=O)[O-])c4)c3O)cc2c1 870

Note down Selectivity recorded for N=C(N)c1ccc2[nH]c(-c3cc(CC(=O)O)cc(-c4ccccc4)c3O)cc2c1 49

Recorded values, source ChEMBL document CHEMBL1133926.
